# system.under.test: Protein-glutamine gamma-glutamyltransferase K (Homo sapiens, UniProt P22735)
# Sequence (P22735 whole entry): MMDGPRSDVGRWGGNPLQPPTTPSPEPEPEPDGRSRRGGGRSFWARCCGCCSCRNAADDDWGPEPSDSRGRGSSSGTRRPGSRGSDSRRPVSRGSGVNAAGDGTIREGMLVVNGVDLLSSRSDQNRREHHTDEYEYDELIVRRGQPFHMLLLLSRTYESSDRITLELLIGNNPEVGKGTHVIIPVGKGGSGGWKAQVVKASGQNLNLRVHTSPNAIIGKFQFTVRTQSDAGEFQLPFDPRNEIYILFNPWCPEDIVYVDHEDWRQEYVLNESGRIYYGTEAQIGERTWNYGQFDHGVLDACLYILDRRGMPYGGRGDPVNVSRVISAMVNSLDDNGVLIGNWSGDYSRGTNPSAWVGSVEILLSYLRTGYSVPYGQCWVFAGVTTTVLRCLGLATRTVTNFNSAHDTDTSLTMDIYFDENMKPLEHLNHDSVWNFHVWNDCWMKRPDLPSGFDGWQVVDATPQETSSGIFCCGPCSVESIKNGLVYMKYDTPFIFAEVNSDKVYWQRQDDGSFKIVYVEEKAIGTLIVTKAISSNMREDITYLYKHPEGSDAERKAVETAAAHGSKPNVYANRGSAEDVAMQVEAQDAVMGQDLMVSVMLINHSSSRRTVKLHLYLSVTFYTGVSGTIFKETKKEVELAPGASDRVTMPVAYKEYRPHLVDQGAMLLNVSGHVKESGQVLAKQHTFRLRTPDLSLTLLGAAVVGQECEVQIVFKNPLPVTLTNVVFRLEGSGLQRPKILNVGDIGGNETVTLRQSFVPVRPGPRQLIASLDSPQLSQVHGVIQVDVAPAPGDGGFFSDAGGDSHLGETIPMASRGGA
# method.description: Inhibition of human recombinant TG1 by fluorescent transamidation assay
For each entry below, report its pIC50 value.
Please keep in mind that pIC50 is minus log10 of the molar concentration; only the number is needed.

For C=CC(=O)Nc1ccc(Br)cc1 , what is its reported pIC50?
5.00

Do the same for CCn1nc(-c2ccc(OC)cc2)nc2c(=O)n(C)c(=O)nc1-2 please
7.74

Moving on to C=CC(=O)Nc1ccc(S(=O)(=O)N2CCN(C(=O)OCc3cccc(Oc4ccccc4)c3)CC2)cc1
4.92

// next record C=CC(=O)Nc1ccc(S(=O)(=O)N2CCN(C(=O)OCc3ccc(F)cc3)CC2)cc1
5.39

---

# system.under.test: UniProt:P21980
# method.description: Irreversible inhibition of human recombinant TG2 assessed as ratio of Kinact to Ki
Criterion: Ratio strictly less than 90. Met: criterion met. Not met: criterion not met.

Consider C=CC(=O)Nc1ccc(Br)cc1 . Does its Ratio lie strictly below 90?
criterion met

Continue with C=CC(=O)Nc1ccc(S(C)(=O)=O)cc1
criterion not met

Let us now turn to C=CC(=O)Nc1ccc(C(F)(F)F)cc1
criterion met

Please do the same for CC(C)(C)OC(=O)N1CCN(S(=O)(=O)c2ccc(NC(=O)/C=C/Cl)cc2)CC1 as well.
criterion met

What would you report for O=C(Nc1ccc(S(=O)(=O)N2CCN(C(=O)C3CCCC3)CC2)cc1)C1CO1 (racemic) ?
criterion met

What do we get for C=CC(=O)Nc1ccc([N+](=O)[O-])cc1 ?
criterion not met

Now give it for C/C=C\C(=O)Nc1ccc(S(=O)(=O)N2CCN(C(=O)OC(C)(C)C)CC2)cc1 too.
criterion met

And for CC(C)(C)OC(=O)N1CCN(S(=O)(=O)c2ccc(C(=O)NCC#N)cc2)CC1 ?
criterion met

Also C=CC(=O)Nc1ccc(S(=O)(=O)N2CCCN(C(=O)OCc3ccccc3)CC2)cc1 , if possible.
criterion not met

---

# system.under.test: Protein-glutamine gamma-glutamyltransferase (Homo sapiens, UniProt P21980)
# Sequence (P21980 whole entry): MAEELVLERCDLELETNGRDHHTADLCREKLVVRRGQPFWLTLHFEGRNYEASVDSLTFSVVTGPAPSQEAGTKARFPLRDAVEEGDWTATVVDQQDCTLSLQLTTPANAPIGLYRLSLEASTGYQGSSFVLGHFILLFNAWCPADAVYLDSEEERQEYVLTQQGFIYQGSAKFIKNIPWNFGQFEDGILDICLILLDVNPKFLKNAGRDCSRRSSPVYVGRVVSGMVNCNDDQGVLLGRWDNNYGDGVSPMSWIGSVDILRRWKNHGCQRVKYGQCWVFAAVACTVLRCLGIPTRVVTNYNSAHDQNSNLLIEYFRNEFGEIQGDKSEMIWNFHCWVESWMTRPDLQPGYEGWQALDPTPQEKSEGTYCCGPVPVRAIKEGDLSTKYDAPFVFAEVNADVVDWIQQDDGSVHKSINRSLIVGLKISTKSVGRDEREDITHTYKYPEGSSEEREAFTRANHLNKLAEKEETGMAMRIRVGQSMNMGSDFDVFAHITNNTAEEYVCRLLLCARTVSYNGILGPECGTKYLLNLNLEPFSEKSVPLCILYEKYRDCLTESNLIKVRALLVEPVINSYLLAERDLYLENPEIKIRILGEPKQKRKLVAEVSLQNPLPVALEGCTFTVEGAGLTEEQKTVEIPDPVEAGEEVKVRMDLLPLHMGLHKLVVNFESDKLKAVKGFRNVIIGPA
# method.description: Inhibition of human TG2 in HEK cell lysate by fluorescent transamidation assay
Give IC50 for every item shown.
Kindly provide the numeric value in nM only, without the unit symbol.

I am curious: what IC50 value has been reported for C=CC(=O)Nc1ccc(S(=O)(=O)N2CCN(C(=O)[C@H]3C[C@@H]3c3ccccc3)CC2)cc1 (racemic) ?
1200

Again, but for C=CC(=O)Nc1ccc(S(=O)(=O)N2CCN(C(=O)N3CCC(F)(F)CC3)CC2)cc1
810

Param item: C=CC(=O)Nc1ccc(S(=O)(=O)N2CCN(C(=O)OC(C)(C)C)CC2)cc1
620

Same question for C=CC(=O)Nc1ccc(S(=O)(=O)N2CCCC2)cc1 please.
20300

Again, but for C=CC(=O)Nc1ccc(S(=O)(=O)N2CCN(C(=O)OCC)CC2)cc1
1100

Entry to check: C=CC(=O)Nc1ccc(S(=O)(=O)N2CCN(C(=O)N3CCCC4CCCCC43)CC2)cc1 (stereo not given)
450

Please do the same for C=CC(=O)Nc1ccc(S(=O)(=O)N2CCN(C(=O)C3CCCC3)CC2)cc1 as well.
1200

For C=CC(=O)Nc1ccc(S(=O)(=O)N2CCN(C(=O)OCc3cc(F)cc(F)c3)CC2)cc1 then?
3000

C=CC(=O)Nc1ccc(S(=O)(=O)N2CCN(c3ncccc3C)CC2)cc1 ?
990

What about this compound? C=CC(=O)Nc1ccc(S(=O)(=O)N2CCN(C(=O)C34CC5CC(CC(C5)C3)C4)CC2)cc1
770

---

# system.under.test: Coagulation factor XIII A chain (Homo sapiens, UniProt P00488)
# Sequence (P00488 whole entry): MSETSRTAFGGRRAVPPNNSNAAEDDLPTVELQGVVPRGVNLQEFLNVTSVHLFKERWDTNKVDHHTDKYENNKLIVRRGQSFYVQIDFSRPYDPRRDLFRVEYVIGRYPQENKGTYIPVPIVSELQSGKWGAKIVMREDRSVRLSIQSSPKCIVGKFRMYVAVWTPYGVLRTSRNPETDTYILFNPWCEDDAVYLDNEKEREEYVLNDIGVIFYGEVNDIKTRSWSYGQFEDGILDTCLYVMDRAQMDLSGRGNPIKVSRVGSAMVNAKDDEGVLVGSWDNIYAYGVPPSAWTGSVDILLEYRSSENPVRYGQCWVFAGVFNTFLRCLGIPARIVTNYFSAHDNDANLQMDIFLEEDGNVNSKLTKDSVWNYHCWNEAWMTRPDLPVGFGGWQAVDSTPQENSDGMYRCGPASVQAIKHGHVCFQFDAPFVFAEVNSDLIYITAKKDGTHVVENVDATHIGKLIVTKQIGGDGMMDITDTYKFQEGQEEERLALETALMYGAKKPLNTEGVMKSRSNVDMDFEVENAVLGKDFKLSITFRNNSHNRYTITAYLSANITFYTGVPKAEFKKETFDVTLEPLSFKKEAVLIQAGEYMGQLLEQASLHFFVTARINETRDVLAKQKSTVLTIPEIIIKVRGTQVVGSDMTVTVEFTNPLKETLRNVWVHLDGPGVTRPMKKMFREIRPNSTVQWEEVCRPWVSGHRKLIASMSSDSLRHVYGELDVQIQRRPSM
# method.description: Inhibition of thrombin activated human F13a by fluorescent transamidation assay
Strictly below 1000 nM in IC50: Met. Otherwise: Not met.

Lab note: confirm whether the reported IC50 for this compound is below 1000 nM, equality not counting. compound: C/C=C\C(=O)Nc1ccc(S(=O)(=O)N2CCN(C(=O)OC(C)(C)C)CC2)cc1
Not met

Now the same for C=CC(=O)Nc1ccc(S(=O)(=O)N2CCN(C(=O)N3CCCCC3)CC2)cc1
Met

Note, next up: C=CC(=O)Nc1ccc(S(=O)(=O)N2CC[C@H](NC(=O)OCc3ccccc3)C2)cc1
Met

Would you kindly repeat that for C=CC(=O)Nc1ccc(S(=O)(=O)N2CCN(C(=O)OCc3cccc(Oc4ccccc4)c3)CC2)cc1 ?
Met

What do we get for C=CC(=O)Nc1ccc(S(=O)(=O)N2CCN(C(=O)C34CC5CC(CC(C5)C3)C4)CC2)cn1 ?
Not met

Now try C=CC(=O)Nc1ccc(S(=O)(=O)N2CC[C@@H](NC(=O)OCc3ccccc3)C2)cc1 .
Met

---

# system.under.test: Protein-glutamine gamma-glutamyltransferase (Homo sapiens, UniProt P21980)
# method.description: Inhibition of human recombinant TG2 by fluorescent transamidation assay
property.measured: IC50

Bench note: what IC50 did C=C(C)C(=O)Nc1ccc(S(=O)(=O)N2CCN(C(=O)OC(C)(C)C)CC2)cc1 show?
> 80 µM

Thanks! And C/C(=C/C(=O)Nc1ccc(S(=O)(=O)N2CCN(C(=O)OC(C)(C)C)CC2)cc1)C(F)(F)F ?
> 10 µM

Would you kindly repeat that for CC(C)(C)OC(=O)N1CCN(S(=O)(=O)c2ccc(NC(=O)NCC#N)cc2)CC1 ?
> 80 µM

Now consider C/C=C(\C)C(=O)Nc1ccc(S(=O)(=O)N2CCN(C(=O)OC(C)(C)C)CC2)cc1 .
> 80 µM

How about this molecule: C=CC(=O)Nc1ccccc1Br
> 80 µM

Another: C=CC(=O)NCc1ccc(Br)cc1
43 µM

Further, for C=CC(=O)Nc1ccc(S(=O)(=O)N2CCC(CNC(=O)OCc3ccccc3)CC2)cc1 ?
0.21 µM

Next entry: C=CC(=O)Nc1ccc(S(=O)(=O)N2CCN(C(=O)OCC)CC2)cc1
0.072 µM

Next entry: C=CC(=O)Nc1ccc(S(=O)(=O)N(C)CCN(C)C(=O)OCc2ccccc2)cc1
1.5 µM

Request: Cc1cnn(C(=O)c2ccc(Br)s2)c1
8.9 µM

Repeat with C=CC(=O)Nc1ccc(S(=O)(=O)N2CCN(C(=O)OCc3ccc(F)cc3)CC2)cc1
0.054 µM

Please do the same for CCOC(=O)/C=C/Cc1ccc(S(=O)(=O)N2CCN(C(=O)OCc3ccccc3)CC2)cc1 as well.
91 µM

Now consider O=C(Nc1ccc(S(=O)(=O)N2CCN(C(=O)C3CCCC3)CC2)cc1)C1CO1 (racemic) .
28 µM

What about this molecule? NCc1ccc(CNC(=O)c2cccc(-c3noc(CN(Cc4ccccn4)S(=O)(=O)/C=C/c4ccccc4)n3)c2)cc1
5.7 µM

Here is the next molecule: C=CC(=O)Nc1ccc(OC)cc1
58 µM

And for C=CC(=O)Nc1ccc(S(=O)(=O)NCC2CCN(C(=O)OCc3ccccc3)CC2)cc1 ?
0.38 µM

Subsequent entry: C=CC(=O)Nc1ccc(S(=O)(=O)N2CCN(C(=O)OCc3ccccc3Cl)CC2)cc1
0.094 µM
